# Test system: Plenodomus lingam
# Assay Summary: Specific activity of Leptosphaeria maculans brassinin oxidase
Active and inactive are the calls of the source. No cut-off for these calls is given here.
Attribute Measured: Activity

- CNC(=O)CCc1c[nH]c2ccccc12: inactive
- CNC(=S)NCc1c[nH]c2ccccc12: 2560 mU/mg
- CSC(=S)NCc1cn(C)c2ccccc12: 944 mU/mg
- CCCSC(=S)NCc1c[nH]c2ccccc12: inactive
- COC(=O)N(C)Cc1c[nH]c2ccccc12: inactive
- COC(=O)CCc1c[nH]c2ccccc12: inactive
- CSC(=S)NCCc1c[nH]c2ccccc12: inactive
- CSC(=S)OCCc1c[nH]c2ccccc12: inactive
- CNC(=O)NCc1c[nH]c2ccccc12: 3280 mU/mg
- CCSC(=S)NCc1c[nH]c2ccccc12: 434 mU/mg
- CSC(=O)NCc1c[nH]c2ccccc12: 2150 mU/mg
- COC(=O)NCc1c[nH]c2ccccc12: 4060 mU/mg
- CC(=O)NCc1c[nH]c2ccccc12: inactive
- CSC(=S)NCc1c[nH]c2ccccc12 [BRASSININ]: 835 mU/mg
- CSC(=S)N(C)Cc1c[nH]c2ccccc12: inactive
